Origin of values: patent US20240084011A1

Biological target: T1, recombinant human CTLA-4 protein (human, UniProt P16410 36-161)
T1 construct: Recombinant protein used as analyte in SPR/Octet; also called hCTLA-4; CD152
T1 sequence (looked up): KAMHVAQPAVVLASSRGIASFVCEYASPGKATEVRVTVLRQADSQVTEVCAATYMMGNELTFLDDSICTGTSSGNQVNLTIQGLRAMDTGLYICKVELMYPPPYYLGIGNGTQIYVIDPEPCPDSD
Experiment: SPR (Pioneer FE) or Octet (Red96e), 25 C; IgG captured by anti-human Fc or AHC sensor, hCTLA-4 as analyte
recorded.endpoint: Kd (nM)
Provide only the numeric value, understood in nM.

What value of Kd has been recorded for this entry: IgG antibody 78-8D22 HC / 78-8 LC (antibody, V domains shown) VH: EVQLVESGGGLVQPGGSLRLSCAASGFTFSSYVMHWVRQAPGKGLEWVSAISWSGSGTYYADSVKGRFTISRDNSKNTLYLQMNSLRAEDTAVYYCARGRLFGLARYGEAFDVWGQGTLVTVSS VL: DIQMTQSPSSLSASVGDRVTITCQASKDISNYLNWYQQKPGKAPKLLIYDASNLETGVPSRFSGSGSGTDFTFTISSLQPEDIATYYCQQFNSFPLTFGQGTKVEIKR
0.46
